Molecular target: Amine oxidase [flavin-containing] B (Homo sapiens)
Sequence (P27338 whole entry): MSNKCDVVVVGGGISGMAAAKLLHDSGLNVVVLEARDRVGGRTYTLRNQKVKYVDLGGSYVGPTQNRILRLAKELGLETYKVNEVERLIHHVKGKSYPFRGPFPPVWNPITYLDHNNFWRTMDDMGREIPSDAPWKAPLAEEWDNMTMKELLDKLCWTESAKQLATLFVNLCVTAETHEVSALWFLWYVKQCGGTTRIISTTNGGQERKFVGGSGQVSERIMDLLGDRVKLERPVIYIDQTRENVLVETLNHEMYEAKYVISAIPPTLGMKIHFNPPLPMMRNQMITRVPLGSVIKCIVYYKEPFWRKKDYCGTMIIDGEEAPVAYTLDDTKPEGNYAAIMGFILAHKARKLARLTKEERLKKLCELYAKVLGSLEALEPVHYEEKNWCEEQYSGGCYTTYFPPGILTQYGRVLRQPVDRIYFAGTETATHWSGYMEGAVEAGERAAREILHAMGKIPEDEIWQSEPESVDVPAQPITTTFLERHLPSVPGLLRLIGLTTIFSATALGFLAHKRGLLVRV
Experiment: Inhibition of recombinant human MAO-B expressed in baculovirus infected BTI insect cells at 10 uM using kynuramine as substrate incubated for 30 mins by fluorescence assay relative to control
Conditions: 0.5 h
// bucketize inhibition at 10 µM: low interval (below 8%), middle interval (8% to below 20%), high interval (20% or more)

CCN(Cc1ccccc1)Cc1ccc(/C=C2\Oc3cc(OC)c(OC)cc3C2=O)cc1O : high interval
COc1cc2c(cc1OC)C(=O)/C(=C/c1ccc(CN(C)C)c(O)c1)O2 : low interval
CCN(Cc1ccc(/C=C2\Oc3cc(OC)c(OC)cc3C2=O)cc1O)Cc1ccccc1OC : high interval
COc1cc2c(cc1OC)C(=O)/C(=C/c1cccc(O)c1)O2 : high interval
COc1ccccc1CN(C)Cc1ccc(/C=C2\Oc3cc(OC)c(OC)cc3C2=O)cc1O : middle interval
CCN(Cc1ccc(N(C)C)cc1)Cc1ccc(/C=C2\Oc3cc(OC)c(OC)cc3C2=O)cc1O : middle interval
COc1cc2c(cc1OC)C(=O)/C(=C/c1ccc(CN(C)Cc3ccccc3)c(O)c1)O2 : middle interval
COc1cc2c(cc1OC)C(=O)/C(=C/c1ccc(O)cc1)O2 : high interval
CCN1CCN(Cc2ccc(/C=C3\Oc4cc(OC)c(OC)cc4C3=O)cc2O)CC1 : low interval
COc1cc2c(cc1OC)C(=O)/C(=C/c1ccc(CN3CCOCC3)c(O)c1)O2 : low interval

----------
Target: butyrylcholinesterase (BuChE) (Rattus norvegicus)
Sequence (Q9JKC1 whole entry): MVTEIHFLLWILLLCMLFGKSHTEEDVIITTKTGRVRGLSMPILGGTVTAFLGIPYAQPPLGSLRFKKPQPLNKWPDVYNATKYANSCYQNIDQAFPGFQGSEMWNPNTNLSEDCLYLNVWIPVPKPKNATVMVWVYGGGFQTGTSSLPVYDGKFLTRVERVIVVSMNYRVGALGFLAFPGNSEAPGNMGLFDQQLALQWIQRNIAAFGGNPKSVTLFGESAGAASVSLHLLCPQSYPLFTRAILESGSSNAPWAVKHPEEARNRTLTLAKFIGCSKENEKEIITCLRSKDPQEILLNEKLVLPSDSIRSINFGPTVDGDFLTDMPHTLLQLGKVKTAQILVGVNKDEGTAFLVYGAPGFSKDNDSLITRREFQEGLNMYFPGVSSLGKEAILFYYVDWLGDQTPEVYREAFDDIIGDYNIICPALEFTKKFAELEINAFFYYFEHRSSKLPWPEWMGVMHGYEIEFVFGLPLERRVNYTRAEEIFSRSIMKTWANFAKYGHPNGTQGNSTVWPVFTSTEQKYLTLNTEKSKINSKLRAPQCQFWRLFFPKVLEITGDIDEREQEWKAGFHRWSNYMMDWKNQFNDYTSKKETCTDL
Assay: Inhibition of BuChE in rat serum at 50 uM using butyrylthiocholine as substrate measured after 15 mins by Ellman's method relative to control
Conditions: probe butyrylthiocholine
attribute-measured: inhibition at 0.25 h, 50 µM

COc1cc2c(cc1OC)C(=O)/C(=C/c1ccc(CN3CCCCC3)c(O)c1)O2 : 12.9%
COc1cc2c(cc1OC)C(=O)/C(=C/c1ccc(CN(C)Cc3ccccc3)c(O)c1)O2 : < 5%
COc1cc2c(cc1OC)C(=O)/C(=C/c1ccc(O)cc1)O2 : < 5%
CCN1CCN(Cc2ccc(/C=C3\Oc4cc(OC)c(OC)cc4C3=O)cc2O)CC1 : < 5%
CCN(Cc1ccc(N(C)C)cc1)Cc1ccc(/C=C2\Oc3cc(OC)c(OC)cc3C2=O)cc1O : < 5%
COc1cc2c(cc1OC)C(=O)/C(=C/c1ccc(CN3CCN(C)CC3)c(O)c1)O2 : < 5%
CCN(Cc1ccc(/C=C2\Oc3cc(OC)c(OC)cc3C2=O)cc1O)Cc1ccccc1N(C)C : 19.6%
COc1cc2c(cc1OC)C(=O)/C(=C/c1cccc(O)c1)O2 : < 5%
COc1cc2c(cc1OC)C(=O)/C(=C/c1ccc(CN3CCN(Cc4ccccc4)CC3)c(O)c1)O2 : < 5%
CCN(Cc1ccc(/C=C2\Oc3cc(OC)c(OC)cc3C2=O)cc1O)Cc1ccccc1OC : 5.21%
COc1ccccc1CN(C)Cc1ccc(/C=C2\Oc3cc(OC)c(OC)cc3C2=O)cc1O : < 5%
COc1cc2c(cc1OC)C(=O)/C(=C/c1ccc(CN3CCCC3)c(O)c1)O2 : 19%
CCN(Cc1ccccc1)Cc1ccc(/C=C2\Oc3cc(OC)c(OC)cc3C2=O)cc1O : < 5%
COc1cc2c(cc1OC)C(=O)/C(=C/c1ccc(CN(C)C)c(O)c1)O2 : < 5%
CCN(CC)Cc1ccc(/C=C2\Oc3cc(OC)c(OC)cc3C2=O)cc1O : < 5%
COc1cc2c(cc1OC)C(=O)/C(=C/c1ccc(CN3CCOCC3)c(O)c1)O2 : < 5%

----------
Target: Acetylcholinesterase (Rattus norvegicus)
Sequence (P37136 whole entry): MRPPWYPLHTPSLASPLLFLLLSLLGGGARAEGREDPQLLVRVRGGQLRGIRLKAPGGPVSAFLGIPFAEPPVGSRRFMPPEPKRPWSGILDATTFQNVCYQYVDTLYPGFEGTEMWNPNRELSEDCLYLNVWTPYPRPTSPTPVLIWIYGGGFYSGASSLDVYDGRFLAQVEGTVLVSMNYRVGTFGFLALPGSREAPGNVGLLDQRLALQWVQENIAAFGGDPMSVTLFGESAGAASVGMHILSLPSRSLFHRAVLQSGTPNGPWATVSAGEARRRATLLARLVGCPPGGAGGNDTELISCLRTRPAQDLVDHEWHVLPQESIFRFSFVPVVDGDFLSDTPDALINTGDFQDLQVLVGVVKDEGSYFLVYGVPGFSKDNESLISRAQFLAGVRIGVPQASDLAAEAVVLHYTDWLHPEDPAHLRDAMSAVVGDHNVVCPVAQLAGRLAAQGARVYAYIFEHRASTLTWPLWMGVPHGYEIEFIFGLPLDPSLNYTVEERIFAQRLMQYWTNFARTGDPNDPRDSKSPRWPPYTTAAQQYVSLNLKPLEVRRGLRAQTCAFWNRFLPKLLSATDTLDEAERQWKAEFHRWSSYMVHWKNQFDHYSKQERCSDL
Test: Inhibition of AChE in rat brain cortex homogenates using acetylthiocholine iodide as substrate in presence of BuChE inhibitor tetraisopropyl pyrophosphoramide measured after 15 mins by Ellman's method
pIC50: −log10 of the molar value.
attribute-measured: pIC50

COc1cc2c(cc1OC)C(=O)/C(=C/c1cccc(O)c1)O2 : 3.88
COc1cc2c(cc1OC)C(=O)/C(=C/c1ccc(O)cc1)O2 : 3.53
CCN(CC)Cc1ccc(/C=C2\Oc3cc(OC)c(OC)cc3C2=O)cc1O : 6.97
COc1cc2c(cc1OC)C(=O)/C(=C/c1ccc(CN3CCOCC3)c(O)c1)O2 : 5.06
COc1cc2c(cc1OC)C(=O)/C(=C/c1ccc(CN3CCN(C)CC3)c(O)c1)O2 : 4.79
CCN(Cc1ccc(/C=C2\Oc3cc(OC)c(OC)cc3C2=O)cc1O)Cc1ccccc1OC : 4.35
CCN(Cc1ccc(/C=C2\Oc3cc(OC)c(OC)cc3C2=O)cc1O)Cc1ccccc1N(C)C : 5.14

----------
Target: Amyloid-beta precursor protein (Homo sapiens) (UniProt P05067)
Sequence (P05067 whole entry, the tested form may be a part): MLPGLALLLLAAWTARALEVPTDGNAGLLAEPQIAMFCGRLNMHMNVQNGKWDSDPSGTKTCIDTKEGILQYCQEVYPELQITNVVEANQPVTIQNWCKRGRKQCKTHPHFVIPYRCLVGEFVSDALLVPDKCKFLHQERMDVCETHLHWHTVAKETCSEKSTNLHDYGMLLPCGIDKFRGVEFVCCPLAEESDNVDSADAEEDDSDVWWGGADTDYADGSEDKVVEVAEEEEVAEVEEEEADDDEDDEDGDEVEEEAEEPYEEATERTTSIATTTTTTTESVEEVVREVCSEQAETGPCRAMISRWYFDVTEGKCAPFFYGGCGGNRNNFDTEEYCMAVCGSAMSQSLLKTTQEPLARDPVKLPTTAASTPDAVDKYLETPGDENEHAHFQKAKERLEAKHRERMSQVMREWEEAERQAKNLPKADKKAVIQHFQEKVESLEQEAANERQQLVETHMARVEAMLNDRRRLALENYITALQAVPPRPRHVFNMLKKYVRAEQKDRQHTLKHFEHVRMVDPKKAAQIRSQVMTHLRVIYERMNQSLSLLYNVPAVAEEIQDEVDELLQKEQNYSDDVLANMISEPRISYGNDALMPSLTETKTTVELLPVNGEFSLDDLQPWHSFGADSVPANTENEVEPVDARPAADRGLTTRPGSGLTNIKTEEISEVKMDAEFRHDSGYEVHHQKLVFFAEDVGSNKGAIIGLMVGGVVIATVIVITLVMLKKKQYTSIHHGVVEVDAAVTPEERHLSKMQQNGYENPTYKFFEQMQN
Test: Inhibition of self-induced aggregation of HFIP-treated human amyloid beta (1 to 42 residues) at 25 uM after 24 hrs by thioflavin T-based fluorometric assay relative to control
Grouping rule (inhibition): range A = under 40%, range B = from 40% up to 60%, range C = 60% and over

CCN(Cc1ccccc1)Cc1ccc(/C=C2\Oc3cc(OC)c(OC)cc3C2=O)cc1O : range C
CCN(Cc1ccc(/C=C2\Oc3cc(OC)c(OC)cc3C2=O)cc1O)Cc1ccccc1N(C)C : range C
CCN(Cc1ccc(/C=C2\Oc3cc(OC)c(OC)cc3C2=O)cc1O)Cc1ccccc1OC : range C
COc1cc2c(cc1OC)C(=O)/C(=C/c1cccc(O)c1)O2 : range A
COc1cc2c(cc1OC)C(=O)/C(=C/c1ccc(CN3CCOCC3)c(O)c1)O2 : range A
CCN1CCN(Cc2ccc(/C=C3\Oc4cc(OC)c(OC)cc4C3=O)cc2O)CC1 : range B
COc1cc2c(cc1OC)C(=O)/C(=C/c1ccc(CN(C)C)c(O)c1)O2 : range B
CCN(CC)Cc1ccc(/C=C2\Oc3cc(OC)c(OC)cc3C2=O)cc1O : range B
COc1ccccc1CN(C)Cc1ccc(/C=C2\Oc3cc(OC)c(OC)cc3C2=O)cc1O : range B
COc1cc2c(cc1OC)C(=O)/C(=C/c1ccc(CN3CCN(Cc4ccccc4)CC3)c(O)c1)O2 : range B
COc1cc2c(cc1OC)C(=O)/C(=C/c1ccc(O)cc1)O2 : range A
COc1cc2c(cc1OC)C(=O)/C(=C/c1ccc(CN(C)Cc3ccccc3)c(O)c1)O2 : range B
CCN(Cc1ccc(N(C)C)cc1)Cc1ccc(/C=C2\Oc3cc(OC)c(OC)cc3C2=O)cc1O : range C
COc1cc2c(cc1OC)C(=O)/C(=C/c1ccc(CN3CCN(C)CC3)c(O)c1)O2 : range A
COc1cc2c(cc1OC)C(=O)/C(=C/c1ccc(CN3CCCCC3)c(O)c1)O2 : range B
